# ASSAY_OVERVIEW: AUC (0 to infinity) in Sprague-Dawley rat at 5 mg/kg,po by LC-MS/MS analysis
# Type: ADME, organism-based
# MEASUREMENT_SETUP: in vivo
VALUE_KIND: AUC(0-inf) (ng·h/mL)
Note: unit ng·h/mL is implicit; provide only the numeric part.

query: Item under review: CCCCNC(=O)/C=C/c1ccc(COC(Cn2ccnc2)c2ccc(Cl)cc2Cl)cc1 (stereo unspecified) . Reported AUC(0-inf)?
result: 452

---

# ASSAY_OVERVIEW: Stability in mouse plasma assessed as parent compound remaining measured at 180 mins
# Assay type: ADME, cell-free
# MEASUREMENT_SETUP: read-out: Stability
// reported remaining at 3 h per item
Note: unit % is implicit; provide only the numeric part.

COMPOUND	VALUE_UNIT	remaining at 3 h
O=C(/C=C/c1ccc(COC(Cn2ccnc2)c2ccc(Cl)cc2Cl)cc1)Nc1ccc(Cl)cc1Cl (stereo not drawn)	%	97.8

query: Item under review: `OC(Cn1cncn1)(Cn1cncn1)c1ccc(F)cc1F` . Reported remaining at 3 h?
result: 116

query: Also, CCCCNC(=O)/C=C/c1ccc(COC(Cn2ccnc2)c2ccc(Cl)cc2Cl)cc1 (stereo not drawn) please.
result: 102
